# Test system: HT29 colon
# protocol description: NCI-60 one-dose screen, 48 h
# setup conditions: 10 µM unless noted
Compounds without any hit were thinned out: in the full panel of roughly 83,000, 20% have a hit. Active and inactive are the calls of the source. How the source made its calls: active means growth percent below 10; inactive means the rest.
# valid calls are active, inactive; nothing else

Short answer needed: outcome of this test for COC(=O)/C(=C\c1ccc(OC)cc1)C(=O)N1c2ccccc2Sc2ccccc21 ?
inactive

How did this test come out for O=C(NC1CCOCC1)c1ccc2c(c1)CN(c1ncc(Cc3cccc(-n4cccn4)c3)s1)CC2 ?
inactive

Look up the recorded call for O=c1cc(-c2ccc(OCc3ccccc3)cc2)oc2c(I)c(OCc3ccccc3)cc(OCc3ccccc3)c12 in this test.
inactive

How was Clc1cnc(Nc2ccc(OCCN3CCCC3)cc2)nc1NCc1ccco1 classified in this test?
inactive

What is the recorded call for this compound in the test? Nc1nc(I)c2ncn(C3OC(CO)C(O)C3O)c2n1 (stereo unspecified)
inactive

###

# Test system: SNB-75 CNS
# protocol description: NCI-60 one-dose screen, 48 h (100 = growth as untreated, 0 = no growth, -100 = all killed)
# setup conditions: 10 µM unless noted
About 83,000 compounds went through this panel and 20% of them were active in at least one assay; those are over-represented in the sample as a whole.
readout name: growth (%)
Number in %, nothing else.

>  <compound>
C#C[C@]1(O)CC[C@H]2[C@@H]3CC=C4c5sc(N=C(N)N)nc5CC[C@]4(C)[C@H]3CC[C@@]21C

>  <growth [%]>
-60.5

$$$$
>  <compound>
CNC(=O)c1cc(Oc2ccc3nc(NC(=O)Nc4cc(C(F)(F)F)cc(C(F)(F)F)c4)sc3c2)ccn1

>  <growth [%]>
-71.3

$$$$
>  <compound>
CCOC(=O)c1nnn(-c2ccccc2)c1C1=CN(C)CCC1

>  <growth [%]>
89.8

$$$$
>  <compound>
O=C(CC1Sc2ccccc2NC1=O)NNc1ccc(F)cc1 (stereo not given)

>  <growth [%]>
73.3

$$$$
>  <compound>
Cc1[nH]c(-c2nc3ccccc3[nH]2)c(C)c1C(=O)N1CCOCC1

>  <growth [%]>
87.8

$$$$

Look up growth for this compound: O=C(Oc1ccc[nH]c1=O)c1cc([N+](=O)[O-])cc([N+](=O)[O-])c1
97.1

Can you share its growth? I mean this compound: O=C(C[C@@]1(O)C(=O)Nc2c(Cl)ccc(Cl)c21)c1ccc(C2CC2)cc1
-29.9

Reported growth for O=C(CCc1nc(-c2cccc(Cl)c2)no1)Nc1ccccn1 : what is it?
93.7

Give its growth value. Item: COc1ccc(NC(=O)C(=O)c2c[nH]c3ccc(F)cc23)cc1
99.7

Request the reported growth associated with CC1(C)CC(=O)c2c(ccc(C(=O)C[C@H](N)CO)c2N)O1
75.9

Any idea what growth was measured for COc1cc2c(cc1OC)-c1ccc3cc4c(cc3c1N(CCCN1CCCCC1)C2)OCO4 ?
51.3

Bench note: what growth did CNC(=O)c1c(NC(=O)c2ccc(C(C)(C)C)cc2)sc2c1CCC(=O)C2 show?
-27.8

Given O=C1C=CC(=Nc2cc(Br)c(O)c(Br)c2)C=C1 , state its recorded growth.
68.3

I would be grateful if you could share the reported growth for CCOc1ccc(S(=O)(=O)c2ccc(C)cc2)c2c1no[n+]2[O-] .
54.7

So what's the measured growth for this one? COc1cccc(-c2nc3sccn3c2-c2ccnc(NCCNS(=O)(=O)c3c(Cl)cccc3Cl)c2)c1
42.8

Please give the measured growth for this compound: N#Cc1c(Oc2ccc([N+](=O)[O-])cc2)nc2sc3cc(Cl)ccc3n2c1=N
29.7

Which growth value is on record for COc1ccc(-c2nc3sccn3c2/C=C/C(=O)c2c[nH]c3ccccc23)cc1 ?
39.1

Any idea what its growth is? The compound is COc1cc2c(cc1OC)-c1ccc3cc4c(cc3c1N(CCCN(C)C)C2)OCO4
44.1

growth for C[C@@H]1C(=O)N(C[C@H](Cc2ccccc2)NC(=O)OCc2ccccc2)[C@]1(Cc1ccccc1)C(=O)OC(C)(C)C ?
68.7

Name the reported growth value associated with the compound O=C1NC(=S)S/C1=C\N1N=C(c2ccc(Cl)cc2)CC1c1ccc(F)cc1 (stereo not given)
76.1

###

Form field: growth (one value per entry).
# System: TK-10 renal
# protocol description: NCI-60 one-dose screen, 48 h (100 = growth as untreated, 0 = no growth, -100 = all killed)
# setup conditions: 10 µM unless noted
About 83,000 compounds went through this panel and 20% of them were active in at least one assay; those are over-represented in the sample as a whole.
Answer format: numeric, % implied, no suffix.

// solved cases for growth follow
>  <compound>
NC(N)=N/N=C(/c1ccccc1)c1ccccc1F

>  <unit name>
%

>  <growth>
64.9

$$$$
>  <compound>
O=C(O)CC1Sc2ccccc2NC1=O (configuration not stated)

>  <unit name>
%

>  <growth>
149

$$$$
>  <compound>
CC(C)(C)N1CC(OC(N)=O)C1

>  <unit name>
%

>  <growth>
94.8

$$$$
>  <compound>
O=C(Nc1ccc(N2CCCCC2)c(Cl)c1)c1ccc(Br)o1

>  <unit name>
%

>  <growth>
102

$$$$
>  <compound>
CCOC(=O)c1c(C)nc2c(c1N)/C(=C/c1ccc(OC)cc1)C(=O)N2Cc1ccc(F)cc1

>  <unit name>
%

>  <growth>
-70.8

$$$$

For the compound shown here, Cc1cc(Cc2cc(C)cc(C(C)(C)C)c2O)c(O)c(C(C)(C)C)c1 , give the reported growth.
52.8

Can you look up the measured growth of O=C1c2ccccc2C(=O)c2cc(Cn3cc[n+](Cc4ccc5ccccc5c4)c3)ccc21 for me?
107

What value of measured growth is listed for CCCCOc1nc2ccc(Cl)cc2cc1/C=C/C(=O)/C=C1/CC(c2cc3cc(Cl)ccc3nc2OCCCC)Nc2ccccc2N1 (configuration not stated) ?
113

Endpoint output: growth of OC(c1cccc(OCc2ccccc2)c1)c1nnc(-c2ccccc2)o1 (configuration not stated) . Value?
143

Looking for the measured growth of COc1cc(C2CC(=O)Nc3n[nH]c(-c4ccccc4)c32)cc(OC)c1OC (configuration not stated) , can you help?
97.7

# query: growth of entry COc1cc2oc(-c3cccc(C(=O)Nc4ccc(C#N)cc4)c3)cc(=O)c2c(O)c1OC
50.5

May I ask what growth has been recorded for CCCCNC(=O)NS(=O)(=O)c1ccc(N2N=C(c3ccc(C)cc3C)CC2c2ccc(N(C)C)cc2)cc1 (configuration not stated) ?
83

May I ask what growth has been recorded for CN1CCN(C2=C(Cl)C(=O)c3ccccc3C2=O)CC1 ?
93.5

Quick check: growth of COc1cc2c(cc1OC)-c1ccc3cc4c(cc3c1N(CCCN1CCCCC1)C2)OCO4 ?
73.2

Recorded growth of Nc1ccc(-c2cc3c(Nc4ccc(OCc5cccc(F)c5)c(Cl)c4)ncnc3s2)cc1 , please.
32.5

Which growth reading was recorded for the compound O=c1cc(-c2ccc(OCc3ccccc3)cc2)oc2c(I)c(OCc3ccccc3)cc(OCc3ccccc3)c12 ?
96.5

# get_value(readout='growth', item= CC(=O)Nc1ccc2c(c1)Cc1c(F)cccc1-2 )
103

Entry N#C/C(=C\c1ccc(Br)cc1)n1nnc2ccccc21 has what growth?
1.55

Returns the measured growth for the input compound. Input: Cc1nn(Cc2ccccc2)cc1C(=O)Nc1sc2c(c1C(N)=O)CCC(=O)C2
15.5

Sample COc1cc(C2C=C(c3cccc(NC(C)=O)c3)Nc3ncnn32)cc(OC)c1OC (configuration not stated) — what was its growth?
4.84

Find the recorded growth belonging to Cc1cc(=O)c2cc3nc(-c4cccnc4)oc3c(Br)c2o1 and report it.
153

Item O=C(O)c1ccccc1C(=O)Nc1ccc(Cl)cc1 has what recorded growth?
93.3

###

# Test system: HCT-15 colon
# protocol description: NCI-60 one-dose screen, 48 h (100 = growth as untreated, 0 = no growth, -100 = all killed)
# setup conditions: 10 µM unless noted
Compounds without any hit were thinned out: in the full panel of roughly 83,000, 20% have a hit.
readout name: growth (%)
I only need the number, in %, no unit after it.

Use these answered entries as a reference point.
>  <molecule>
CCCCCCNc1cc(C)nc2ccc(OC)cc12

>  <unit name>
%

>  <obs value>
60.9

$$$$
>  <molecule>
CC(=O)Nc1ccc(C(=O)/C=C/c2ccccc2)cc1

>  <unit name>
%

>  <obs value>
77.3

$$$$
>  <molecule>
Oc1ccccc1-c1nc2ccccn2c1NCCN1CCOCC1

>  <unit name>
%

>  <obs value>
99.4

$$$$
>  <molecule>
CCc1c(C(=O)N[C@@H]2c3cc(Cl)ccc3CC[C@@H]2O)[nH]c(C)c1C(C)=O

>  <unit name>
%

>  <obs value>
41.1

$$$$
>  <molecule>
N=C(N)c1ccc(-c2ccc(/C=C/c3ccccc3)s2)cc1

>  <unit name>
%

>  <obs value>
-54

$$$$
>  <molecule>
CCOC(=O)c1c(C)nc2c(c1N)/C(=C/c1cc(OC)c(OC)c(OC)c1)C(=O)N2c1ccc(OC)cc1

>  <unit name>
%

>  <obs value>
31.3

$$$$
>  <molecule>
COc1ccc(-c2nnc(SCC(=O)NC3=NN=C(c4ccccc4)CS3)o2)cc1

>  <unit name>
%

>  <obs value>
106

$$$$
>  <molecule>
NC(N)=N/N=C(/c1ccccc1)c1ccccc1F

>  <unit name>
%

>  <obs value>
22

$$$$

// returns reported growth for input COc1ccc(/C=C(\C#N)n2nnc3ccccc32)cc1
8.56

Given COc1ccc(-c2cn(-c3cccc(C(=O)/C=C/c4cc(OC)c(OC)c(OC)c4)c3)c(=O)[nH]2)cc1 , state its recorded growth.
3.15

What value of growth has been reported for the following molecule? CNC1(C#N)CCN(Cc2ccccc2)CC1
104

Data request, read-out growth, for COc1ccc(-n2nnc(C(=O)NCCc3c[nH]c4ccc(F)cc34)c2C)cc1
104

Could you share which growth value was measured for C[N+](C)(C)CCOC(OCC[N+](C)(C)C)(c1ccccc1)c1ccccc1 ?
104

Query (molecule): CCCCS(=O)(=O)Oc1ccc(-c2nc(C)c(C(=O)OCC)s2)cc1C=O ; field requested: growth
50.6

Query: growth; subject: COc1cc(/C=C/C(=O)c2cccc(-n3cc(-c4ccc(Cl)cc4)[nH]c3=O)c2)cc(OC)c1OC
40.3

// query growth value for entry O=C(CC12CC3CC(CC(C3)C1)C2)NCCOCCOCCNC(=O)c1cc2c(o1)C(=O)c1ccccc1C2=O
-80.2

What measured growth goes with COc1ccc(NC(=O)C(=O)c2c[nH]c3ccc(F)cc23)cc1 ?
99.2

Request the reported growth associated with O=[N+]([O-])c1ccccc1C(O)Cc1ccc2ccccc2n1 (stereo unspecified)
105

Give the measured growth of CCN(CCO)CC(=O)c1cc(Cl)cc(Cl)c1Cl .
101

Could you share which growth value was measured for Cc1nc2ccccc2c(/C=C/c2ccc(Cl)cc2)c1C(=O)/C=C/c1ccc(Cl)cc1 ?
-31.3

Reported growth for C[C@@H]1CC[C@@H]2[C@@H]1[C@H](OC(=O)/C=C/c1ccccc1)[C@]1(C3CCCCC3)C[C@@H](NC(=O)CO)[C@@]2(C)O1 : what is it?
99
